# melting point annotations

Use the examples below as a reference point.
INSERT INTO results (record_smiles, readout, reported_measurement) VALUES
  ('NCc1ccc(CCCNCCNS(=O)(=O)c2ccc3c(c2)CNCC3)cc1', 'melting point', '233.9 to 234.5 °C'),
  ('NCc1ccc(CCCNCCNS(=O)(=O)c2ccc3ccccc3c2Cl)cc1', 'melting point', '264.3 to 265.6 °C'),
  ('NCc1ccc(CCCNCCNC(=O)c2ccc3ncccc3c2)cc1', 'melting point', '269.5 to 271.2 °C'),
  ('CN(CCCc1ccc(CN)cc1)CCN(C)C(=O)c1cc2cc(Cl)ccc2[nH]1', 'melting point', '190.2 to 191.4 °C'),
  ('NCc1ccc(CCCNCCNS(=O)(=O)c2ccc3c(c2)CCC3)cc1', 'melting point', '199 to 199.7 °C');

# ---- query compound ----
Q: May I ask what melting point has been recorded for NCc1ccc(CCCNCCNS(=O)(=O)c2ccc3sccc3c2)cc1 ?
A: 264.2 to 265.4 °C
